subject-of-test: Endothelial lipase (EL) (Homo sapiens (Human), UniProt Q9Y5X9)
Sequence (Q9Y5X9 21-500): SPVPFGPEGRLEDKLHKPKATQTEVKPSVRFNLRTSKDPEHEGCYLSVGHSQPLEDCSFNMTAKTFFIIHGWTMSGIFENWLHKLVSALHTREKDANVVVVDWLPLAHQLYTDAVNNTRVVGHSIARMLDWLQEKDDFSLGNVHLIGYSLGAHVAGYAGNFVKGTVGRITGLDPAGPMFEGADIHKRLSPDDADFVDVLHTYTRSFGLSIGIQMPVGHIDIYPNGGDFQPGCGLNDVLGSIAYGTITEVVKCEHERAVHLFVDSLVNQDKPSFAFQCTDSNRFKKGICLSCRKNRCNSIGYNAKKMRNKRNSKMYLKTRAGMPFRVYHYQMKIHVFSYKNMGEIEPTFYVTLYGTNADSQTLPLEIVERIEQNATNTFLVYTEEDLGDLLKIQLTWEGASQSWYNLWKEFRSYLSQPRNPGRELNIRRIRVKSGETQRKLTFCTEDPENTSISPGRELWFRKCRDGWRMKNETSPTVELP
assay-procedure: Endothelial lipase (EL) enzymatic assay with fluorescent substrate A10070 in DMPG vesicles
Assay type: biochemical
Catalogue of IC50 readings, one per entry.
Provide the reading as a plain figure in nM.

{"compound": "COCCS(=O)(=O)C(C(=O)NCC(=O)NC1CC1)c1nc2cc(-c3ccnc(OC)c3)ccc2s1 (stereo not shown)", "endpoint-unit": "nM", "IC50": 31}
{"compound": "CS(=O)(=O)C(C(=O)NCC(=O)NC1CC1)c1nc2ccc(-c3ccccc3)cc2s1 (stereo not shown)", "endpoint-unit": "nM", "IC50": 152}
{"compound": "O=C(CNC(=O)C(c1nc2c(F)cc(-c3cnc(C4CC4)nc3)cc2s1)S(=O)(=O)c1ccc(F)cc1)NC1CC1 (stereo not shown)", "endpoint-unit": "nM", "IC50": 51}

Could you now consider this next compound?
IC50 measured on O=C(CNC(=O)C(c1nc2cc(F)c(-c3ccc(NC(=O)OCC4CC4)cc3)cc2s1)S(=O)(=O)C1CC1)NC1CC1 (stereo not shown) = 3
